All values here come from the domain aggregation screens of Martell et al. (2025).

# METHOD DESCRIPTION: soluble fraction after stress (log2 fold change); higher = more stays soluble; pooled small domains, quantitative proteomics
# CONDITION LABEL: stress: pH 4
OBSERVABLE: soluble fraction (log2)

Ask | Look at this sequence and give its reported soluble fraction (log2). `HMNREENIQIGRDLLERELRKQGMDLQENLRQEVLLDGAKKLGFNNTDDLLAAIGDLKVTPAMFIGKIA`
Reply | -0.168

Ask | Which soluble fraction (log2) value is on record for `HMKSYTYNPNYLSDYNAYRLGIPLEALERLQLHRSTGRYVNSLSDFQSVTGISDSLKHSLSSSLRFPN` ?
Reply | -0.564

Ask | Item `HMQDNPELVARIEKAAARGTSSMSDWERSFMGSLLDSAKKWGRLTAKQHEVFQRIEKKTDPAHQAAVS` has what recorded soluble fraction (log2)?
Reply | 0.0292

Ask | soluble fraction (log2) for `HMEEIDLTPAEEILNKLPDNSRGYLIPTLNKIQNAYRFLPDPAMELLMEFFNVSRAEIFGVISFYPQLMI` ?
Reply | -0.533

====

# METHOD DESCRIPTION: soluble fraction after stress (log2 fold change); higher = more stays soluble; pooled small domains, quantitative proteomics
# CONDITION LABEL: stress: pH 4
OBSERVABLE: soluble fraction (log2)

Ask | Any idea what its soluble fraction (log2) is? The sequence is `HMDKKEFGKRLKNLRIRNKMSQQAMADSLGYTSRSTINKIEEGINEMSYDKIVRLMELYGLSRPDLGLEPI`
Reply | -0.157

Ask | Which soluble fraction (log2) is reported for this sequence? `HMLRNDEAVMLGRRLLNKHLQAFSVQIKDISHQRIHDLLDELELESLDHLLDDIGLGNRSVFLVAQKLLQ`
Reply | -1.25

Ask | Recorded soluble fraction (log2) for `HMTAPELGIRQDGNTLVIFWPSSVTGYVLKSADAVDTPPASWTSVTHTTVGDEHRAEITPTGNSRFFRLV` , please?
Reply | -0.492

Ask | If you can, please state the reported soluble fraction (log2) value of `HMGLQRLTVSPEDAGVRIDKYLAEQLPDITRSYLQKLLKDGSVQMNGKPVKASTKTAVGAVIALTIPEP` .
Reply | -0.157

Ask | Value lookup for soluble fraction (log2); key = `HMRLGQLQSVEEPKFIEVHSGKQGDIGEQTIVEYEIDAKYATGDATINLKLLFRDGLFEIYNFNFSSEALL`
Reply | -0.259

Ask | Reported soluble fraction (log2) for `HMQDGTILPGQKTAIRSLATSGGYDSQDLDTYLATTYGKSIDGLTRTEGADVIKAFQAGTVAK` : what is it?
Reply | 0.165

Ask | I would be grateful if you could share the reported soluble fraction (log2) for `HMSNKYYETILDWFKSQIMSGELKEGDTIPSERELATRFGVSRVPVREALRILEYIGIVSNTADGMTVQKV` .
Reply | -0.976

Ask | Can you share its soluble fraction (log2)? I mean this sequence: `HMYMLYQQLADSLRDKIYEGTYTFGDKIPSERTLAATFGISHLTVRKALAILEEEGLLDRRQGNGTFVRV`
Reply | -0.693

Ask | Name the reported soluble fraction (log2) value associated with the sequence `HMEPMLEIFDAKIDLADVLAVESGLVRLRGGAEVTSPRVDVDAGARLELDSGARLNVERLSY`
Reply | -0.823

Ask | Any idea what soluble fraction (log2) was measured for `HMQVVDWSQVDKEDYLLATKRRAVSTGELKFLLLNNLTYDLTQTRFFKGMDASYYYEGYNLYQTGE` ?
Reply | -0.693

Ask | What does the record list as soluble fraction (log2) for `HMGSNENTIREYFDSLIASASKREIMDANPTMSQRTVERILQKLQAEGYVEKIGAARSTRYRRA` ?
Reply | -0.0919

Ask | I am curious: what soluble fraction (log2) value has been reported for `HMPKRYAGPDIIAIYGSDVFFRVGSGDGLMVIPVGRSMDNIEVVSVDAPRSVELMWKDGGPFTVPV` ?
Reply | -0.218

Ask | # query: soluble fraction (log2) of entry `HMGMNKEHFIIELKIYLKALNPKDQAIILAKYKALFDARVAEGETEEQVAKSLGKPRVIAEEILKEQGIE`
Reply | ≥ 0.43

Ask | If you can, please state the reported soluble fraction (log2) value of `HMLSSREEKILNYLNEHQIITRKKAQELLETSQSTAGRVLKIMVDNGLIVQYGGSRSIWYELIK` .
Reply | -0.269

Ask | Reported soluble fraction (log2) for `HMNSKQELAYQTIRARIVDGSYGPGYRIVIDEVARELGVSPIPVREAVRRLEAEGLITYTRHAGARVVA` : what is it?
Reply | -0.273

Ask | Tell me the measured soluble fraction (log2) of `HMDDISLEEIKYISSKLETKVNEIEELLVRYYDGETNEAEEKELKEFFAQADVPAHLLAEKRLFMQLASQ` , please.
Reply | -0.324

Ask | Would you kindly share the measured soluble fraction (log2) for `HMDSNPLSEREQEVLQLVAKGASNQTIAEQLFLSNGTIRNYMTAIFNKLNANNRTDAVRIARENGW` ?
Reply | -0.24

====

# METHOD DESCRIPTION: soluble fraction after stress (log2 fold change); higher = more stays soluble; pooled small domains, quantitative proteomics
# CONDITION LABEL: stress: pH 4
OBSERVABLE: soluble fraction (log2)
Reply briefly: the number, and no unit.

Ask | # soluble fraction (log2) lookup, item `HMHDPLATLTPREHEVMSLMAEGRTNAAIAQALVIGTGAVEKNVTSIFQKLGLDDSGTDHRRVLAVLAWLQ`
Reply | -1.18

Ask | Any idea what soluble fraction (log2) was measured for `HMDLAPLQTVDIAINYAKAAELAAILKSSEGGILSDRGGVTVDERTNTLLIRDTLESIDEARKTI` ?
Reply | -0.4

Ask | Data request, read-out soluble fraction (log2), for `HMPPITIVPNDNGVPIIRSQTPEISTAVNVELKAAGINTHTIDGTSIRVPKAQAQVAQQIVSRVNTRFT`
Reply | 0.266

Ask | Field request: soluble fraction (log2) | item: `HMNVSDIENKLNEMLSPLEKKVMVLYLEGKSYVEIGELLGRHTKSVDNALQRVKRKLEIYLKNRK`
Reply | 0.295

Ask | Which measured soluble fraction (log2) value corresponds to `HMTIGKIVNIIEGSYANVRSAPDQNSEPIGRAYPGDAFLVDPLGSSGDWVKVTYEGQSGFIFQAYISV` ?
Reply | -1.28

Ask | Need soluble fraction (log2) of `HMGRTGTVVVSPSLNVRTGPWGEIIGSLYNGNKVEIIGSSGDWYQISFGGKTAYVHSDYVVDGG` , thanks.
Reply | -0.779

Ask | Fill in the blank: the reported soluble fraction (log2) of `HMPAWKINQELQATVIATKANQTRLRIEGQTFETQTAIALKPGQSLLIKVVSLEPQISFALI` is ____.
Reply | 0.199

Ask | Please look up its soluble fraction (log2): `HMPGVLEVDTGGVAAVAYVDGVEVGRVPGELQIAAGTKTLMLKADRYLDYVQSLEIDGLGKRQLLVATLQS`
Reply | -0.831

Ask | So what's the measured soluble fraction (log2) for this one? `HMNDELMEQIDEWHKAEKHQEIIDALEQIPEAERDFETTGFLARAYNNIEEYAKAADLLESVRE`
Reply | -1.51

Ask | # lookup: soluble fraction (log2) of `HMSFDTFKKVFSNLVEKSGYSDAEIARRLGVNRSTISRWKSGEQSPPLPKVKEIANFFGVSPMVFVD`
Reply | 0.0603

Ask | Name the reported soluble fraction (log2) value associated with the sequence `HMPEKNQITHLIRLIDDRDEFVRKRVREQLIKLGEDAIPFLEMAAKTENLEIQRIASEIIQAIIPRQ`
Reply | -0.282

Ask | Find the recorded soluble fraction (log2) belonging to `HMASKTGTITATSLNVRSGAATTYSILGTLSNGKTVTIYEESNGWYKINYNGGYGWVSKTYVSTG` and report it.
Reply | -0.105

Ask | Given the sequence `HMTNQEFNEVFKLLLAAYPNTKDKESVATIYFLTIANELTKKEFAEAVVKILKTRKSGFIPQPAEILEVAK` , what is its reported soluble fraction (log2)?
Reply | -0.208

Ask | For the sequence shown here, `HMRDTLSKQLLTEEMVLQFIREMREHDPGIGGEKLHAMYLGRFGRDYEYMVGRDKMEMIIAENNLNVR` , give the reported soluble fraction (log2).
Reply | -1.05

Ask | Requested field: soluble fraction (log2). Item: `HMVKIVWSKEGPYVGTRVRRYFSQGPVDGTVVMYAKPQKGDDVALWRISHDDGDEEDLEEQELRLAID`
Reply | -1.69

Ask | Recorded soluble fraction (log2) of `HMSRTLLVYVTGAVRQPGVYELPEGSRFFDAVKAAGDVLPYAVMEDINMAEPLSDGMKIHIPLDPEQ` , please.
Reply | -1.01

Ask | Would you kindly share the measured soluble fraction (log2) for `HMSSYETVTLNGQRYFKYKVKSGEGLYAISRMFSTPIAEIIRHNPSSNAGLKNGQELLIPVN` ?
Reply | -0.0689
